target: SGK1 (human); experiment: Caliper, Mobility shift assay off-chip; conditions: compound 0.2 µM
# reported inhibition; entries follow
Answer in %, number only, no unit symbol.

The following compounds have reported results that may help.
smiles_str=Cc1ccc(Nc2nccc(N(C)c3ccc4c(C)n(C)nc4c3)n2)cc1S(N)(=O)=O result_value=-4.1
smiles_str=CCN(CC)CCNC(=O)c1c(C)[nH]c(/C=C2\C(=O)Nc3ccc(F)cc32)c1C result_value=28.6
smiles_str=COc1cc2c(Oc3ccc4[nH]c(C)cc4c3F)ncnc2cc1OCCCN1CCCC1 result_value=0.4

Next compound, please.
Request: Recorded inhibition for "CNC(=O)c1cc(Oc2ccc(NC(=O)Nc3ccc(Cl)c(C(F)(F)F)c3)cc2)ccn1" , please?
Response: 8.5

* * *

molecular target: CSK (human) (UniProt P41240); assay: Caliper, Mobility shift assay off-chip; conditions: compound 0.2 µM
Sequence (P41240 whole entry, looked up): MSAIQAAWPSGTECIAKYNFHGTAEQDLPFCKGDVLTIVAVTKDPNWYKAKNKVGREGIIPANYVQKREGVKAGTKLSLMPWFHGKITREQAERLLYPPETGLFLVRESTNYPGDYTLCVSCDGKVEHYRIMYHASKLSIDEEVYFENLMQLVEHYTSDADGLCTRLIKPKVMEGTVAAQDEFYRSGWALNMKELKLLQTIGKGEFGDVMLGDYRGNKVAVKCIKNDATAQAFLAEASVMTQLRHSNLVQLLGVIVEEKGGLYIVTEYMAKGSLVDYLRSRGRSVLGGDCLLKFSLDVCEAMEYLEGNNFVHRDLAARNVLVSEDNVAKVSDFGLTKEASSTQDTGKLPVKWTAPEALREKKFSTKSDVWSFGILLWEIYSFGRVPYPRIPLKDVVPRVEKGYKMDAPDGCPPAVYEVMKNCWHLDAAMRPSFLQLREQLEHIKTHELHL
# reported inhibition; entries follow
Answer in %, number only, no unit symbol.

smiles_str=CNC(=O)c1cc(Oc2ccc(NC(=O)Nc3ccc(Cl)c(C(F)(F)F)c3)cc2)ccn1 measurement_kind=inhibition result_units=% result_value=2.6

Request: Recorded inhibition for "COc1cc2c(Oc3ccc4[nH]c(C)cc4c3F)ncnc2cc1OCCCN1CCCC1" , please?
Response: -6.3

Request: Recorded inhibition for "Cc1ccc(Nc2nccc(N(C)c3ccc4c(C)n(C)nc4c3)n2)cc1S(N)(=O)=O" , please?
Response: -0.7

Request: Recorded inhibition for "CCN(CC)CCNC(=O)c1c(C)[nH]c(/C=C2\C(=O)Nc3ccc(F)cc32)c1C" , please?
Response: 1.2

* * *

target: MAP3K4 (human) (UniProt Q9Y6R4); assay: ELISA; settings: compound 0.2 µM
Sequence (Q9Y6R4 whole entry, looked up): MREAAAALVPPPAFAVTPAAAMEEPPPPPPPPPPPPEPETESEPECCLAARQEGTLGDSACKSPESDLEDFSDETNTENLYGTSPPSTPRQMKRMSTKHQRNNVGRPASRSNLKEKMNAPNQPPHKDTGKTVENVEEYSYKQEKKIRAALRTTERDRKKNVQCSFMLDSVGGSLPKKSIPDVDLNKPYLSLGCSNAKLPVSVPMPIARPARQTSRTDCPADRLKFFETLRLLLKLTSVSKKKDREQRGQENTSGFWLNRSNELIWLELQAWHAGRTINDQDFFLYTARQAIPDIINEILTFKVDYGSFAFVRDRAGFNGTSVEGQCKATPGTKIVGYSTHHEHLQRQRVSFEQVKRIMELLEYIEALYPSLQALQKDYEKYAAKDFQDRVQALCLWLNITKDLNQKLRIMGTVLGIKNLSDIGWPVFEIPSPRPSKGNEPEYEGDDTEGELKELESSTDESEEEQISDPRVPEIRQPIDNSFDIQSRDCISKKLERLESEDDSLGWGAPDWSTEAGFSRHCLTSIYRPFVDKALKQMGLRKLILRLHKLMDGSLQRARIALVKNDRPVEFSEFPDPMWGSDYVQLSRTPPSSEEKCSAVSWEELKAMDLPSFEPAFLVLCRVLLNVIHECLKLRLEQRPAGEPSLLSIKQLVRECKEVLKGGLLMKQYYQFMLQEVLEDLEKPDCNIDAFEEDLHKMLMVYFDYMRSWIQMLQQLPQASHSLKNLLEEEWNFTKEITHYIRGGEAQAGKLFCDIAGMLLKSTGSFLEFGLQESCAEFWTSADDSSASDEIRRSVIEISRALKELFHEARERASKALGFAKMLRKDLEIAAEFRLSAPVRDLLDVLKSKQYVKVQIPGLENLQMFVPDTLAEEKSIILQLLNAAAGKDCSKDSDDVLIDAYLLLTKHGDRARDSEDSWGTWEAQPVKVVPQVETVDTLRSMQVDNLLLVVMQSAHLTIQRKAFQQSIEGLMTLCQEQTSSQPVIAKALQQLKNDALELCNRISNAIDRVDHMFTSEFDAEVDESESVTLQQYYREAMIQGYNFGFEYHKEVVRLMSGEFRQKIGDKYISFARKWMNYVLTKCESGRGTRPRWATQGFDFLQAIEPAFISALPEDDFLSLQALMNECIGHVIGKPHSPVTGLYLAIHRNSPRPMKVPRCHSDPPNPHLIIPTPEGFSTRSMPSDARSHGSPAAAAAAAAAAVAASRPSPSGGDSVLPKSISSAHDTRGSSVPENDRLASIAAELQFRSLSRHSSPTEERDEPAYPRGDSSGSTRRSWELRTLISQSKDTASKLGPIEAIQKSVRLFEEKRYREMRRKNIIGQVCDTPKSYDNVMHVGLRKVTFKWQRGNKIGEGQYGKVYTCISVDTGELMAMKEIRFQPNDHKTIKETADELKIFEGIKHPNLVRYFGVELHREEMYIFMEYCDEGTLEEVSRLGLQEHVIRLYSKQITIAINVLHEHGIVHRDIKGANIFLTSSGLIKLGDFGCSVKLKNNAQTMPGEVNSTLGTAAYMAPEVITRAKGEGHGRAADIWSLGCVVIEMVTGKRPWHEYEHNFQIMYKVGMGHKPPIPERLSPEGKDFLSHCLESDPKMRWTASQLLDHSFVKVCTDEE
# reported inhibition; entries follow
Could you kindly put the unit after your number?

Request: Recorded inhibition for "CCN(CC)CCNC(=O)c1c(C)[nH]c(/C=C2\C(=O)Nc3ccc(F)cc32)c1C" , please?
Response: -4.9%

Request: Recorded inhibition for "Cc1ccc(Nc2nccc(N(C)c3ccc4c(C)n(C)nc4c3)n2)cc1S(N)(=O)=O" , please?
Response: 3%

Request: Recorded inhibition for "COc1cc2c(Oc3ccc4[nH]c(C)cc4c3F)ncnc2cc1OCCCN1CCCC1" , please?
Response: -6.3%

Request: Recorded inhibition for "CNC(=O)c1cc(Oc2ccc(NC(=O)Nc3ccc(Cl)c(C(F)(F)F)c3)cc2)ccn1" , please?
Response: 4.4%

* * *

molecular target: MAPK13 (human) (UniProt O15264); assay: Caliper, Mobility shift assay off-chip; details: compound 0.2 µM
Sequence (O15264 whole entry, looked up): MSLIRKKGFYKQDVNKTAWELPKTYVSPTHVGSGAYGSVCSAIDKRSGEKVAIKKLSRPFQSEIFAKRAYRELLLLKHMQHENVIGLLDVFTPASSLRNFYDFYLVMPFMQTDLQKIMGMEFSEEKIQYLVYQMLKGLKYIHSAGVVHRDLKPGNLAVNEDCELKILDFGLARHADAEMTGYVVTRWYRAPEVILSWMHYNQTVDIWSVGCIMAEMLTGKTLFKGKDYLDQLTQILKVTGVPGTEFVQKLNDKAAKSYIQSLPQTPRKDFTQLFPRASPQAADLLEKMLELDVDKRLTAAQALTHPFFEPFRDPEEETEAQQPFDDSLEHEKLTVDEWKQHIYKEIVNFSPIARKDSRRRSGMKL
# reported inhibition; entries follow
Answer in %, number only, no unit symbol.

The following molecules have reported results that may help.
smiles_str=COc1cc2c(Oc3ccc4[nH]c(C)cc4c3F)ncnc2cc1OCCCN1CCCC1 result_value=-3.4
smiles_str=Cc1ccc(Nc2nccc(N(C)c3ccc4c(C)n(C)nc4c3)n2)cc1S(N)(=O)=O result_value=-3.8
smiles_str=CNC(=O)c1cc(Oc2ccc(NC(=O)Nc3ccc(Cl)c(C(F)(F)F)c3)cc2)ccn1 result_value=-0.7

Next molecule, please.
Request: Recorded inhibition for "CCN(CC)CCNC(=O)c1c(C)[nH]c(/C=C2\C(=O)Nc3ccc(F)cc32)c1C" , please?
Response: -3.4

* * *

# reported inhibition; entries follow
target: CDK6 (human) (UniProt Q00534); assay: Caliper, Mobility shift assay off-chip; details: compound 0.2 µM
Sequence (Q00534 whole entry, looked up): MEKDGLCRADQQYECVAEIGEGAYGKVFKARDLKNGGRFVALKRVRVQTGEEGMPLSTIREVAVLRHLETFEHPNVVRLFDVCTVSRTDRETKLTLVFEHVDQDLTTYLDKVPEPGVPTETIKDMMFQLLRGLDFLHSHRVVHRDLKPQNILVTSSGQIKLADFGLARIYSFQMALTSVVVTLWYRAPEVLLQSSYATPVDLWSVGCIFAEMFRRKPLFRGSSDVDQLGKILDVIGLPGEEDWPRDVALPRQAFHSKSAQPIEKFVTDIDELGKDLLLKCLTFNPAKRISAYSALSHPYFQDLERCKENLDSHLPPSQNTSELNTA
Answer in %, number only, no unit symbol.

The following molecules have reported results that may help.
smiles_str=Cc1ccc(Nc2nccc(N(C)c3ccc4c(C)n(C)nc4c3)n2)cc1S(N)(=O)=O target_of_assay="CDK6 (human) (UniProt Q00534)" measurement_kind=inhibition result_units=% result_value=8.2
smiles_str=CNC(=O)c1cc(Oc2ccc(NC(=O)Nc3ccc(Cl)c(C(F)(F)F)c3)cc2)ccn1 target_of_assay="CDK6 (human) (UniProt Q00534)" measurement_kind=inhibition result_units=% result_value=2
smiles_str=CCN(CC)CCNC(=O)c1c(C)[nH]c(/C=C2\C(=O)Nc3ccc(F)cc32)c1C target_of_assay="CDK6 (human) (UniProt Q00534)" measurement_kind=inhibition result_units=% result_value=23.8

Next molecule, please.
Request: Recorded inhibition for "COc1cc2c(Oc3ccc4[nH]c(C)cc4c3F)ncnc2cc1OCCCN1CCCC1" , please?
Response: 4.1
